Tested on: EKVX
Test: NCI tumour cell line growth inhibition, 48 h
Calls of active or inactive are those of the source. Rule as the data show it: active = GI50 up to about 1.1 µM and inactive = higher.
Possible outcomes: 1 for active, -1 for inactive

COMPOUND: CCOC(=O)/C=C(/C(=O)OCC)n1ccc(=O)n(/C(=C/C(=O)OCC)C(=O)OCC)c1=O
TESTED_TARGET: EKVX
LABEL_CLASS: -1
--
COMPOUND: CN(C)C=O.O=C(Nc1nnn[nH]1)c1nc(O)cc(-c2ccccc2)n1
TESTED_TARGET: EKVX
LABEL_CLASS: -1
--
COMPOUND: CCOc1ccc2[nH]c3c(C)c4cc[n+](C)cc4c(C)c3c2c1
TESTED_TARGET: EKVX
LABEL_CLASS: -1
--
COMPOUND: COC(=O)/N=[N+](\[O-])C(c1ccc(OC)cc1)C1CCCCC1 (stereo not given)
TESTED_TARGET: EKVX
LABEL_CLASS: 1
--
COMPOUND: CC1(C)c2ccccc2C(O)C12CCC(=O)CC2 (stereo not given)
TESTED_TARGET: EKVX
LABEL_CLASS: -1

---

Measured GI50 of individual entries
Test system: COLO 205
Experiment: NCI tumour cell line growth inhibition, 48 h
Calls of active or inactive are those of the source. No stated cut-off is given here; in the data, active = GI50 up to about 1.1 µM and inactive = higher.

COMPOUND: Cc1ccc(S(=O)(=O)SC(C)(C)C)cc1
GI50: 47.6 µM (inactive)

COMPOUND: COc1cc(/C=C2\N=C(c3ccccc3)N(c3nc4ccc(Sc5ccccc5)cc4[nH]3)C2=O)cc(OC)c1OC
GI50: 18.9 µM (inactive)

COMPOUND: CC12CC(c3ccccc3O1)C(C(=O)Nc1ccc(F)cc1)C(=O)N2 (centres undefined)
GI50: > 100 µM (inactive)

COMPOUND: O=C(CSc1nnc(-c2ccc(/N=C\c3ccc(Cl)cc3)cc2)o1)Nc1ccc(Cl)cc1
GI50: > 100 µM (inactive)

COMPOUND: C#Cc1cccc(N2C(=O)c3c(c(-c4ccccc4)c(-c4ccc(Cc5ccc(-c6c(-c7ccccc7)c7c(c(-c8ccccc8)c6-c6ccccc6)C(=O)N(c6cccc(C#C)c6)C7=O)cc5)cc4)c(-c4ccccc4)c3-c3ccccc3)C2=O)c1
GI50: 27 µM (inactive)

COMPOUND: CNC(=S)Nc1sc2c(c1C#N)CCCC2
GI50: > 75 µM (inactive)

COMPOUND: COc1cc([C@H]2c3cc4c(cc3[C@H](NCc3ccc([N+](=O)[O-])cc3)C3COC(=O)[C@H]32)OCO4)cc(OC)c1O (some centres undefined)
GI50: 2.52 µM (inactive)

COMPOUND: COc1cccc(N(CN2C(=O)CCC2OC)C(C)=O)c1 (centres undefined)
GI50: > 100 µM (inactive)

COMPOUND: N#Cc1c2ccccc2cn1-c1ccc(F)cc1
GI50: 26.2 µM (inactive)

---

Measured GI50 of individual entries
Tested on: SF-295
Assay: NCI tumour cell line growth inhibition, 48 h
Activity calls are given as the source filed them. No stated cut-off is given here; in the data, active = GI50 up to about 1.1 µM and inactive = higher.
PARAMETER_MEASURED: GI50

MOLECULE: Cn1c(CC(O)c2nc3ccccc3n2C)nc2ccccc21 (stereo not given)
TESTED_TARGET: SF-295
PARAMETER_MEASURED: GI50
READOUT_VALUE: > 100 µM (inactive)

MOLECULE: CC(O)C(CO)NC(=O)C1CSSCC(NC(=O)C(N)Cc2ccccc2)C(=O)NC(Cc2ccccc2)C(=O)NC(Cc2c[nH]c3ccccc23)C(=O)NC(CCCCN)C(=O)NC(C(C)O)C(=O)N1 (stereo not given)
TESTED_TARGET: SF-295
PARAMETER_MEASURED: GI50
READOUT_VALUE: > 100 µM (inactive)

MOLECULE: Cn1c(=O)c(-c2ccccc2)c(N=[N+]=[N-])c2ccccc21
TESTED_TARGET: SF-295
PARAMETER_MEASURED: GI50
READOUT_VALUE: 47.9 µM (inactive)

MOLECULE: CCOC(=O)c1c2ccccc2n2c(N)c(C(N)=O)nnc12
TESTED_TARGET: SF-295
PARAMETER_MEASURED: GI50
READOUT_VALUE: 33.1 µM (inactive)

MOLECULE: O=c1c2c(no[n+]2[O-])c2ccccc2n1-c1ccccc1
TESTED_TARGET: SF-295
PARAMETER_MEASURED: GI50
READOUT_VALUE: 14.8 µM (inactive)
